Molecular target: T1, EBOV VLP (Ebola virus (EBOV), UniProt Q05320 33-676)
T1 sequence: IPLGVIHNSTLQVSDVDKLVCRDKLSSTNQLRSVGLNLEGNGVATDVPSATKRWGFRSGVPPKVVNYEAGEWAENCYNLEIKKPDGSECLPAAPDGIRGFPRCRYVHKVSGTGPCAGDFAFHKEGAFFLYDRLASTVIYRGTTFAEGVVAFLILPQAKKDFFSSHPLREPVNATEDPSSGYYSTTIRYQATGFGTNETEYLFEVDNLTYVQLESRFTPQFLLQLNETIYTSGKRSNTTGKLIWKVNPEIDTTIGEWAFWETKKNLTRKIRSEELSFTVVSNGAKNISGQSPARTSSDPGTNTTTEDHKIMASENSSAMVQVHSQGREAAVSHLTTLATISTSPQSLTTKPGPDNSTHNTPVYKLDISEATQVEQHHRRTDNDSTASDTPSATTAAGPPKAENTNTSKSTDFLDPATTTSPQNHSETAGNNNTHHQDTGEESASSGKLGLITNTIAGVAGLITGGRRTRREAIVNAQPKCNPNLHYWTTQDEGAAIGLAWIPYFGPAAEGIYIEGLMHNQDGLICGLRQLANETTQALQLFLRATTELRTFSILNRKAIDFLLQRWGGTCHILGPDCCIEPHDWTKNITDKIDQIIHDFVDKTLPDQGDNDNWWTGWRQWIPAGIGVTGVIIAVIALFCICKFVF
Assay: ELISA
Consider the following binders and their measured pEC50 readings.
// pEC50: -log10(molar conc.)

Memo: FVM19 (antibody, V domains shown) VH: QVQLVQSGAEVKRPGESLTISCKTSGYSFTDSWVAWVRQMPGKGLEWLGSIYPGDSDTKYNPSFQGHVTISADKSVTTTYLKWSSLKASDTATYYCVKGSETWGQGVLVTVSS VL: KPMLTQPASLSASPGASASLTCTFSGGINVAGYHIFWYQQKPGSPPRYLLRYKSDSDKGQGSGVPSRFSGSKDASANTGILRISGLQSEDEADYYCAIGHSSGLLFGGGTRLTVL , reported pEC50: 9.01

Okay, next one:
For record FVM35 (antibody, V domains shown) VH: EVQLVQSGAEVKRPGESLTISCKTSGYSFTSYWITWVRQMPGKGLEWLGSIYPGDSETKYNPSFQGHVTISADKSVTTTYLKWSSLKASDTATYYCVKGSETWGQGVLVTVSS VL: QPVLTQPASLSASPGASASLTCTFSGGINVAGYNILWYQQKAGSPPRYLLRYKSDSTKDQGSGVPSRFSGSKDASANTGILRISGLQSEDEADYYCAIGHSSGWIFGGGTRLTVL the listed pEC50 is 9.63

The origin of these recorded values is patent US20170334973A1.
